target: TNFα (Homo sapiens, UniProt P01375); experiment: TNF-Induced HEK-Blue Assay; type: cell-based; conditions: HEK-Blue-CD40L cells, NF-kB-driven secreted alkaline phosphatase reporter; TNFα 0.5 ng/ml; 18 h; read-out: TNF induced HEK-Blue assay IC50 value
Sequence (P01375 77-233 limits assumed): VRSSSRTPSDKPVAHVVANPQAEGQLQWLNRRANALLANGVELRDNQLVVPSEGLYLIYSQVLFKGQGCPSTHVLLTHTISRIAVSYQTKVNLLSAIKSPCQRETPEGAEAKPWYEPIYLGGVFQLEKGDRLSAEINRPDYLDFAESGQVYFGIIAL
Positions of bridges follow the written chain, without caps; N, C: chain ends. Non-standard residues stand in square brackets, D forms with d. Residues, ends and D or L forms follow the SMILES beside them. ξ: configuration not given here. Bip(4'-NHAc) = CC(=O)Nc1ccc(-c2ccc(C[C@H](N)C(=O)O)cc2)cc1; Bip = N[C@@H](Cc1ccc(-c2ccccc2)cc1)C(=O)O; 2Pal = N[C@@H](Cc1ccccn1)C(=O)O; Cha = N[C@@H](CC1CCCCC1)C(=O)O; ξIle = CC[C@H](C)C(N)C(=O)O; Sar = CNCC(=O)O
Measurement label: IC50

IN: Which IC50 is reported for this compound? CC[C@H](C)C1NC(=O)[C@@H]2CCCN2C(=O)[C@H]([C@@H](C)CC)NC(=O)[C@@H](CCCNC(=N)N)NC(=O)[C@H](CC(=O)O)NC(=O)[C@H](Cc2ccccn2)NC(=O)CN(C)C(=O)[C@H](Cc2ccc(-c3ccc(NC(C)=O)cc3)cc2)NC(=O)[C@H](Cc2ccc(-c3ccccc3)cc2)NC(=O)[C@H](CC2CCCCC2)NC(=O)CSC[C@@H](C(=O)NCC(N)=O)NC(=O)[C@H](CC(C)C)NC(=O)[C@H](CCCNC(=N)N)NC1=O (stereo partly shown) [Example 290] ({CH2CO}-[Cha][Bip][Bip(4'-NHAc)][Sar][2Pal]D[dR]IP[ξIle]RLCG-NH2; thioether N-13)
OUT: 50 to 200 nM

* * *

Hi there, I'd appreciate the recorded pIC50 for every entry that follows.
target: TNFα (Homo sapiens, UniProt P01375); assay: TNF-Induced HEK-Blue Assay; format: cell-based; conditions: HEK-Blue-CD40L cells, NF-kB-driven secreted alkaline phosphatase reporter; TNFα 0.5 ng/ml; 18 h; read-out: TNF induced HEK-Blue assay IC50 value
pIC50: −log10 of the molar value. Positions of bridges follow the written chain, without caps; N, C: chain ends. Non-standard residues stand in square brackets, D forms with d. Residues, ends and D or L forms follow the SMILES beside them. Bip(4'-NHAc) = CC(=O)Nc1ccc(-c2ccc(C[C@H](N)C(=O)O)cc2)cc1; Ala(morpholin-4-yl) = N[C@@H](CN1CCOCC1)C(=O)O; Bip = N[C@@H](Cc1ccc(-c2ccccc2)cc1)C(=O)O; Sar = CNCC(=O)O

IN: Request - read-out pIC50 | tested on TNFα (Homo sapiens, UniProt P01375) | molecule CC(C)C[C@@H]1NC(=O)[C@H](CCCCN)NC(=O)[C@H](C(C)C)NC(=O)[C@@H]2CCCN2C(=O)[C@H](C(C)C)NC(=O)[C@H](CCCNC(=N)N)NC(=O)[C@H](CC(=O)O)NC(=O)[C@@H]2CCCN2C(=O)CN(C)C(=O)[C@H](Cc2ccc(-c3ccccc3)cc2)NC(=O)[C@H](Cc2ccc(-c3ccccc3)cc2)NC(=O)[C@H](Cc2ccccc2)NC(=O)CSC[C@@H](C(=O)NCC(N)=O)NC1=O [Example 3] ({CH2CO}-F[Bip][Bip][Sar]PDRVPVKLCG-NH2; thioether N-13)
OUT: 5.70 to 6.70

IN: // fetch TNFα (Homo sapiens, UniProt P01375) pIC50 for CC(=O)Nc1ccc(-c2ccc(C[C@@H]3NC(=O)[C@H](Cc4ccc(-c5ccccc5)cc4)NC(=O)[C@H](CN4CCOCC4)NC(=O)CSC[C@@H](C(=O)NCC(N)=O)NC(=O)[C@H](CC(C)C)NC(=O)[C@H](CCCNC(=N)N)NC(=O)[C@H](C(C)C)NC(=O)[C@@H]4CCCN4C(=O)[C@H](C(C)C)NC(=O)[C@@H](CCCNC(=N)N)NC(=O)[C@H](CC(=O)O)NC(=O)[C@@H]4CCCN4C(=O)CN(C)C3=O)cc2)cc1 [Example 128] ({CH2CO}-[Ala(morpholin-4-yl)][Bip][Bip(4'-NHAc)][Sar]PD[dR]VPVRLCG-NH2; thioether N-13)
OUT: > 7.30
